This collection of values is drawn from patent US20230286958A1.

The following molecules have recorded IC50 on human Factor XIa (Homo sapiens (Human), UniProt P03951).
Sequence (P03951 388-625 limits assumed): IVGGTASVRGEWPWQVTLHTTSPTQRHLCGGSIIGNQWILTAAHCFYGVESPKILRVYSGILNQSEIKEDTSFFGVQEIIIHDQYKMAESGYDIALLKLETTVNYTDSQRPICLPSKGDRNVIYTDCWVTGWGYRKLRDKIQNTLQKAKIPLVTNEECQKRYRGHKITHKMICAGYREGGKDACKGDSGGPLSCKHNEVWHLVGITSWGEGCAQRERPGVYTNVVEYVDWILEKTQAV
Sequence (P03951 19-387 partner limits assumed): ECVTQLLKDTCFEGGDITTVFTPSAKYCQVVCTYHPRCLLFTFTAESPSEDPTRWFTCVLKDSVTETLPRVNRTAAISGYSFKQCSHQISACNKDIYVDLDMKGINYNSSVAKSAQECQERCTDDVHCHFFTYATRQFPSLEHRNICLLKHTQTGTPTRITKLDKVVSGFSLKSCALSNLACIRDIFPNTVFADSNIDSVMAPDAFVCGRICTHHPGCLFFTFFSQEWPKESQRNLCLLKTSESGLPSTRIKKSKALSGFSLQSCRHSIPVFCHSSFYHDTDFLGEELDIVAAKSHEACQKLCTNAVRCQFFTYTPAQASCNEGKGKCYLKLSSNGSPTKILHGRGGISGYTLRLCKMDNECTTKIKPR
Give the quantity in µM, number only.

molecule	testedTarget	unitsOfMeasure	IC50
Cc1nc(N2C[C@H]3C[C@H]3C2=O)ncc1Cn1ncc(NC(=O)c2nc(-c3c(C(F)F)ccc(Cl)c3F)cnc2C)n1 [Example 184]	human Factor XIa (Homo sapiens (Human), UniProt P03951)	µM	7.73

Could you share which IC50 value was measured for Cc1ncc(-c2c(C(F)F)ccc(Cl)c2F)nc1C(=O)Nc1cnn([C@H](C)c2cnc(N3C[C@H]4C[C@H]4C3=O)c(N)c2)c1 [Example 190] ?
1.04

Consider next the molecule Cc1ncc(-c2c(C(F)F)ccc(Cl)c2F)nc1C(=O)Nc1cnn(C(C)c2cnc(N3C[C@H]4C[C@H]4C3=O)c(NC(=O)OC(C)(C)C)c2)c1 (mixture of isomers) [Example 96] in the same way.
3.95

---

# testedTarget: Human plasma kallikrein (Homo sapiens (Human), UniProt P03952)
# Sequence (P03952 391-638): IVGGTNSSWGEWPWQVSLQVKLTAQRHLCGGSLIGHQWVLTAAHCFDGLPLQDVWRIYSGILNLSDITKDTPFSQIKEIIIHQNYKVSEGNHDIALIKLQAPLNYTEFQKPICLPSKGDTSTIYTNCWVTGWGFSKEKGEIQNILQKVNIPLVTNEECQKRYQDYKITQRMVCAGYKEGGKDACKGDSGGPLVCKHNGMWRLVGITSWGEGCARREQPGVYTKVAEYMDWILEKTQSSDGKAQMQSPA
# Sequence (P03952 20-390 partner): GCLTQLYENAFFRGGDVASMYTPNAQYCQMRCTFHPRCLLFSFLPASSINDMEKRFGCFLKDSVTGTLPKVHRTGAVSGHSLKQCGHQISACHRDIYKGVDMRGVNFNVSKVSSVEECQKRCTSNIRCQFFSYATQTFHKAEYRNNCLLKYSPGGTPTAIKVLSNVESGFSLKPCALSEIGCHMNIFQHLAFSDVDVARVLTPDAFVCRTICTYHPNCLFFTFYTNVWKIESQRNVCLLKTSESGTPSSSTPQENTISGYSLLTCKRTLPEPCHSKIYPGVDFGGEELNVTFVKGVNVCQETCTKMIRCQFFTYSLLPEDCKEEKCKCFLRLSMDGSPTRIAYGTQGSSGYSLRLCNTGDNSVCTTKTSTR
# testDetails: Kallikrein Assay (fluorogenic substrate Acetyl-K-P-R-AFC)
# condition: Plasma Kallikrein (PKal)
Define the label as Yes when IC50 is strictly less than 2 nM and as No in all remaining cases.

is_below(IC50, 2 nM) for CC(c1cnc(N2CCN(C)C2=O)nc1)n1cc(NC(=O)c2cncc(-c3c(C(F)F)ccc(Cl)c3F)n2)cn1 (racemic) ?
No

Next compound up: Cc1cc(C(C)n2cc(NC(=O)c3nc(-c4c(C(F)F)ccc(Cl)c4F)cnc3C(C)O)cn2)cnc1N1C[C@H]2C[C@H]2C1=O (single isomer, unassigned) [Example 213]
Yes

Entry to check: Cc1cc(C(C)n2cc(NC(=O)c3nc(-c4c(C(F)F)ccc(Cl)c4F)cnc3C)cn2)nnc1N1C[C@H]2C[C@H]2C1=O (single isomer, unassigned) [Example 103]
Yes

What about this compound? Cc1cc(C(C)n2cc(NC(=O)c3nc(-c4c(C(F)F)ccc(Cl)c4F)cnc3C(C)O)cn2)cnc1N1C[C@H]2C[C@H]2C1=O (single isomer, unassigned) [Example 210]
Yes

Moving on to Cc1nc(C(C)n2cc(NC(=O)c3nc(-c4c(C(F)F)ccc(Cl)c4F)cnc3C)cn2)ccc1N1C[C@H]2C[C@H]2C1=O (single isomer, unassigned) [Example 59]
No

---

# testedTarget: Human plasma kallikrein (Homo sapiens (Human))
# testDetails: Kallikrein Assay (fluorogenic substrate Acetyl-K-P-R-AFC)
# condition: Plasma Kallikrein (PKal)
recordedEndpoint: pIC50
Units for pIC50: none; it is -log10 of a concentration expressed in mol/L.

Examples from the recorded data:
compound	pIC50
CC(c1cnc(N2CC3CC3C2=O)nc1)n1cc(NC(=O)c2cncc(-c3c(OC(F)F)ccc(Cl)c3F)n2)cn1 (single isomer, unassigned) [Example 71]	7.41
Cc1cc(C(C)n2cc(NC(=O)c3nc(-c4c(C(F)F)ccc(Cl)c4F)cnc3C(C)O)cn2)nnc1N1C[C@H]2C[C@H]2C1=O (single isomer, unassigned) [Example 231]	8.30
CC(c1cnc(N2C[C@H]3C[C@H]3C2=O)c(F)c1)n1cc(NC(=O)c2nc(-c3c(C(F)F)ccc(Cl)c3F)cnc2COC(C)(C)C)cn1 (single isomer, unassigned) [Example 144]	8.80
Cc1c(C(C)n2cc(NC(=O)c3cncc(-c4c(C(F)F)ccc(Cl)c4F)n3)cn2)cnc(N2C[C@H]3C[C@H]3C2=O)c1C (single isomer, unassigned) [Example 152]	9.52

Which pIC50 is reported for this compound? Cc1nc(C(C)n2cc(NC(=O)c3cncc(-c4c(OC(F)F)ccc(Cl)c4F)n3)cn2)cnc1N1C[C@H]2C[C@H]2C1=O (single isomer, unassigned) [Example 16]
8.72

---

human Factor XIa (Homo sapiens (Human)) data, read-out IC50
Report the value in µM with no unit label.

Sample records with IC50:
molecule	IC50 [µM]
Cc1nc(N2C[C@H]3C[C@H]3C2=O)ncc1Cn1cc(NC(=O)c2cncc(-c3c(C(F)F)ccc(Cl)c3F)n2)cn1 [Example 24]	3.11
CC(c1cnc(N2CC3CC3C2=O)nc1)n1cc(NC(=O)c2cncc(-c3c(OC(F)F)ccc(Cl)c3F)n2)cn1 (single isomer, unassigned) [Example 71]	4.3

We next turn to a different molecule, shown below.
Which value of IC50 has been reported for Cc1ncc(-c2c(C(F)F)ccc(Cl)c2F)nc1C(=O)Nc1cnn(C(C)c2cnc(N3C[C@H]4C[C@H]4C3=O)c3c2OC(F)(F)O3)c1 (single isomer, unassigned) [Example 246] in the records?
6.56

---

# testedTarget: Human plasma kallikrein (Homo sapiens (Human), UniProt P03952)
# testDetails: Kallikrein Assay (fluorogenic substrate Acetyl-K-P-R-AFC)
# condition: Plasma Kallikrein (PKal)
pIC50: −log10 of the molar value.
Classification field: enter 1 (yes) for pIC50 values not below 8, 0 (no) for values below it.

Would you please look over these solved cases?
molecule	classAssignment
Cc1ncc(-c2c(C(F)F)ccc(Cl)c2F)nc1C(=O)Nc1cnn(C(C)c2cnc(N3C[C@H]4C[C@H]4C3=O)c(OC(F)F)c2C)c1 (single isomer, unassigned) [Example 225]	1 (yes)
Cc1cc(N2C[C@H]3C[C@H]3C2=O)ccc1C(C)n1cc(NC(=O)c2cncc(-c3c(C(F)F)ccc(Cl)c3F)n2)cn1 (single isomer, unassigned) [Example 98]	1 (yes)
Cc1ncc(-c2c(C#N)ccc(Cl)c2F)nc1C(=O)Nc1cnn(C(C)c2cnc(N3C[C@H]4C[C@H]4C3=O)c(F)c2C)c1 (single isomer, unassigned) [Example 135]	1 (yes)
Cc1cc(Cn2cc(NC(=O)c3nc(-c4c(C(F)F)ccc(Cl)c4F)cnc3C)cn2)nnc1N1C[C@H]2C[C@H]2C1=O	1 (yes)
Cc1cc(C(C)n2cc(NC(=O)c3cncc(-c4c(C(F)F)ccc(Cl)c4F)n3)cn2)cnc1N1C[C@H]2C[C@H]2C1=O (single isomer, unassigned) [Example 66]	1 (yes)

Confirm if pIC50 reported for the molecule CC(c1cnc(N2C[C@H]3C[C@H]3C2=O)cn1)n1cc(NC(=O)c2cncc(-c3c(C(F)F)ccc(Cl)c3F)n2)cn1 (single isomer, unassigned) is 8 or above.
0 (no)

Another molecule to check: CC(c1cnc(N2C[C@H]3C[C@H]3C2=O)c2c1OC(F)(F)O2)n1cc(NC(=O)c2cncc(-c3c(C(F)F)ccc(Cl)c3F)n2)cn1 (single isomer, unassigned) [Example 249]
1 (yes)

Same lookup for Cc1ncc(-c2c(OC(F)F)ccc(Cl)c2F)nc1C(=O)Nc1cnn(C(C)c2cnc(N3C[C@H]4C[C@H]4C3=O)c(C)n2)c1 (single isomer, unassigned) [Example 124] , please.
1 (yes)

Lookup Cc1nc(N2C[C@H]3C[C@H]3C2=O)ncc1C(C)n1cc(NC(=O)c2nc(-c3c(C(F)F)ccc(Cl)c3F)cnc2C)cn1 (single isomer, unassigned) [Example 42]
1 (yes)

And for Cc1cc(C(C)n2cc(NC(=O)c3cc(-c4c(C(F)F)ccc(Cl)c4F)c[n+]([O-])c3)cn2)cnc1N1C[C@H]2C[C@H]2C1=O (single isomer, unassigned) [Example 107] ?
1 (yes)

Entry to check: Cc1nc(N2C[C@H]3C[C@H]3C2=O)ncc1[C@H](C)n1cc(NC(=O)c2cncc(-c3c(C(F)F)ccc(Cl)c3F)n2)cn1
1 (yes)

What about this molecule? Cc1nc(N2C[C@H]3C[C@H]3C2=O)ncc1[C@H](CO)n1cc(NC(=O)c2cncc(-c3c(C(F)F)ccc(Cl)c3F)n2)cn1
0 (no)

// query: Cc1ncc(-c2c(C(F)F)ccc(Cl)c2F)nc1C(=O)Nc1cnn(Cc2cnc(N3C[C@H]4C[C@H]4C3=O)c(Cl)c2)c1
1 (yes)

---

# testedTarget: Human plasma kallikrein (Homo sapiens (Human), UniProt P03952)
# testDetails: Kallikrein Assay (fluorogenic substrate Acetyl-K-P-R-AFC)
# condition: Plasma Kallikrein (PKal)
recordedEndpoint: IC50 (nM)
Return type: number; implicit unit nM.

Worked set:
molecule	IC50 / nM
Cc1ncc(-c2c(C(F)F)ccc(Cl)c2F)nc1C(=O)Nc1cnn(C(C)c2ncc(N3C[C@H]4C[C@H]4C3=O)c(C)c2F)c1 (single isomer, unassigned) [Example 245]	0.9
COc1cc(C(C)n2cc(NC(=O)c3nc(-c4c(C(F)F)ccc(Cl)c4F)cnc3C)cn2)cnc1N1C[C@H]2C[C@H]2C1=O (single isomer, unassigned) [Example 219]	0.3
Cc1nc(N2C[C@H]3C[C@H]3C2=O)ncc1C(C)n1cc(NC(=O)c2nc(-c3c(C(F)F)ccc(Cl)c3F)cc(=O)n2C)cn1 (single isomer, unassigned) [Example 80]	25.3
Cc1c(C(CO)n2cc(NC(=O)c3cncc(-c4c(C(F)F)ccc(Cl)c4F)n3)cn2)cnc(N2C[C@H]3C[C@H]3C2=O)c1C (single isomer, unassigned) [Example 167]	10.5

As a next step, examine the molecule that follows.
# IC50 lookup, item Cc1nc(Cn2cc(NC(=O)c3nc(-c4c(C(F)F)ccc(Cl)c4F)cnc3C)cn2)ncc1N1C[C@H]2C[C@H]2C1=O [Example 93]
19.9
